System: K-562 leukemia
Test Summary: NCI-60 one-dose screen, 48 h
Assay Setup: 10 µM unless noted
The panel holds about 83,000 compounds, 20% with a hit somewhere; the sample as a whole holds those more often. Calls of active or inactive are those of the source. The calls were made as follows: active = growth percent below 10; inactive = the rest.
Respond using exactly one of the listed classes: class 1 for active, class 0 for inactive

Examples with answers:
Cc1cccc(/C=C2\CN(C(=O)OC(C)(C)C)C/C(=C\c3cccc(C)c3)C2=O)c1 ... class 1
COc1cc2nc3cc([N+](=O)[O-])ccc3c(NCCNCC(C)O)c2cc1OC (stereo not given) ... class 1
N#Cc1nc(-c2ccc(F)cc2)oc1S(=O)(=O)N1CCOCC1 ... class 1

Query: Hi, do you know how C#CCOc1cccc(Nc2ncnc3ccc(NC(=O)C=C)cc23)c1 came out in this test?
Result: class 0

Query: Hi, do you know how COc1cc(OC)c(/C=C/C(=O)c2c(OC)cccc2OC)c(OC)c1 came out in this test?
Result: class 0

Query: Hi, do you know how COC(=O)c1nc(-c2ccccc2)oc1S(=O)(=O)Cc1ccccc1 came out in this test?
Result: class 1

Query: Hi, do you know how NS(=O)(=O)c1ccc(N=Nc2c(O)n(Cc3ccccc3)c3ccc(Cl)cc23)cc1 came out in this test?
Result: class 0

The reported numbers originate from PubChem BioAssay (NCI).
